As shown below, each of these molecules has a reported melting point value.

INSERT INTO measurements (compound_structure_string, value_observed) VALUES
  ('COc1cc2c(cc1C(F)(F)F)N(C(=O)Nc1ccc3c(ccn3-c3cccnc3)c1)CC2', '202 to 204 °C'),
  ('Cc1cc2c(cc1Cl)N(C(=O)Nc1ccc(C)c(-c3cccnc3)c1)CC2', '202 to 203 °C'),
  ('COc1cc2c(cc1C(F)(F)F)N(C(=O)Nc1cccc(-c3noc(C)n3)c1)CC2', '203 to 204 °C');

Attention now turns to another entry.
melting point in this record for COc1cc2c(cc1C(F)(F)F)N(C(=O)Nc1cncc(-c3cc(F)cc(F)c3)c1)CC2 : 226 to 229 °C
